System: subtype F kissing-loop complex
protocol.text: DMS footprinting, subtype F DIS in the context of RNA1-615
Type: binding, HIV-1
endpoint: binding to the subtype F kissing-loop complex by DMS footprinting

NCC1O[C@H](O[C@@H]2C(N)C[C@@H](N)C(O)[C@H]2O[C@@H]2O[C@H](CO)C(O[C@H]3O[C@H](CN)[C@@H](O)C(O)C3N)[C@@H]2O)C(N)[C@@H](O)[C@@H]1O (stereo partly shown)
efficiently bound
NC[C@@H]1O[C@H](O[C@H]2[C@@H](O)[C@H](O[C@@H]3[C@@H](O)[C@H](N)C[C@H](N)[C@H]3O[C@H]3O[C@H](CO)[C@@H](O)C[C@H]3N)O[C@@H]2CO)[C@H](N)[C@@H](O)[C@@H]1O[C@H]1O[C@H](CO)[C@@H](O)[C@H](O)[C@@H]1O
efficiently bound
NC[C@H]1O[C@H](O[C@H]2[C@H](O[C@@H]3O[C@H](CO)[C@@H](O)[C@H]3O)[C@@H](O)[C@H](N)C[C@@H]2N)[C@H](N)[C@@H](O)[C@@H]1O
did not bind
NC[C@H]1O[C@H](O[C@H]2[C@H](O)[C@@H](O)[C@H](N)C[C@@H]2N)[C@H](N)[C@@H](O)[C@@H]1O
did not bind
